Tested on: PPARg:RXRa DBDmut IVT, anti-RXR (DBD mutation: RXRa K156A/R161A, NR concentration 270 nM, RXRa partner concentration 90 nM)
Assay explanation: PBM binding z-score (relative to random genomic background probes); higher = stronger binding; sequences stand for … in GC…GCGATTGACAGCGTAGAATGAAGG
Property: PBM binding z-score

>  <Seq text>
CTATGTAGGTTAAGGGGGTCATTTAGTTTGAAAG

>  <Property>
PBM binding z-score

>  <Measured result>
7.59

$$$$
>  <Seq text>
TCATATAGGTTAAAGGTGAAAGTCGGTGTGGTAA

>  <Property>
PBM binding z-score

>  <Measured result>
6.74

$$$$
>  <Seq text>
CGAACTAGGTCAGAACAGTACAGTGAAGGATGAT

>  <Property>
PBM binding z-score

>  <Measured result>
7.19

$$$$
>  <Seq text>
CGAACTAGGTCACCAGGACAGTCAAGAGGTTGGA

>  <Property>
PBM binding z-score

>  <Measured result>
8.33

$$$$
>  <Seq text>
CGAACTAGGTCACCAGGAAAGTGAAGAGGTTGGA

>  <Property>
PBM binding z-score

>  <Measured result>
8.65

$$$$
>  <Seq text>
CGAAATAGGTCAAAGGACAGTGAAAGGCGACGTA

>  <Property>
PBM binding z-score

>  <Measured result>
7.36

$$$$
>  <Seq text>
CCTGCTAGGTCTATGGTCAGCTAAAGCAGCTCGC

>  <Property>
PBM binding z-score

>  <Measured result>
-0.291

$$$$
>  <Seq text>
CAAACTAGGTCACAGAGGTCAACGTCCGTGCGTA

>  <Property>
PBM binding z-score

>  <Measured result>
8.84

$$$$
>  <Seq text>
TCGAGTAGGTTACGGGGGCATTCAAGGATGAAGA

>  <Property>
PBM binding z-score

>  <Measured result>
4.93

$$$$
>  <Seq text>
CGTCCAAGGTCAGAGAGGTCAGTGTATGCCGAGT

>  <Property>
PBM binding z-score

>  <Measured result>
2.75

$$$$
>  <Seq text>
ATATGTAGCTTAAGGGTCATTCAGGTTGGTTCGC

>  <Property>
PBM binding z-score

>  <Measured result>
0.343

$$$$
>  <Seq text>
CGAACTAGGTCACCAGGACAGCGAAGAGGTTGGA

>  <Property>
PBM binding z-score

>  <Measured result>
7.82

$$$$
>  <Seq text>
CGTCCAAGGTCAATGCTAGGTCACTGAAAGCATT

>  <Property>
PBM binding z-score

>  <Measured result>
3.52

$$$$
>  <Seq text>
CGTCCGAGGTCAATGCTAGGTCAGTGAAAGCATT

>  <Property>
PBM binding z-score

>  <Measured result>
3.56

$$$$
>  <Seq text>
CGATCTAGGTCACCAGGACAGTGAAGAGGTTGGA

>  <Property>
PBM binding z-score

>  <Measured result>
8.32

$$$$
>  <Seq text>
TCTTGTTGATCAAAGGTTAAGAAAGCCGAAGCCT

>  <Property>
PBM binding z-score

>  <Measured result>
1.8

$$$$
>  <Seq text>
TTGAGTAGGTTACGGGGGCATTCAGGGATGAAGA

>  <Property>
PBM binding z-score

>  <Measured result>
6.29

$$$$
>  <Seq text>
CGAACTAGGTCAGCAGGACAGTGAAGAGGTTGGA

>  <Property>
PBM binding z-score

>  <Measured result>
7.67

$$$$
>  <Seq text>
TCGAGTAGGTTACGAGGGCATTCAGGGATGAAGA

>  <Property>
PBM binding z-score

>  <Measured result>
3.87

$$$$
>  <Seq text>
CTATGTAGGTTAACGGGGTCATTCAGTTTGAAAG

>  <Property>
PBM binding z-score

>  <Measured result>
7.65

$$$$
>  <Seq text>
TCTCGGAGGACACGAAACGTCAGAGCTCGACATC

>  <Property>
PBM binding z-score

>  <Measured result>
1.4

$$$$
>  <Seq text>
CGAACTAGGTCAAACGACAGTGAAAGGCGACGTA

>  <Property>
PBM binding z-score

>  <Measured result>
8.02

$$$$
>  <Seq text>
CCTACTGGGCCATTCAGAGGTCATTGTTCATATG

>  <Property>
PBM binding z-score

>  <Measured result>
4.55

$$$$
>  <Seq text>
CCGAGTAGGTTACGAGGGGGCATTCACTGCGAAT

>  <Property>
PBM binding z-score

>  <Measured result>
4.81

$$$$
>  <Seq text>
AGTCAAAGTTCATCAAGGTAACGTAAGATATGCT

>  <Property>
PBM binding z-score

>  <Measured result>
0.277

$$$$
>  <Seq text>
GATACAGGGTCAACTAGAGGCCAGAGTATGGAAA

>  <Property>
PBM binding z-score

>  <Measured result>
2.63

$$$$
>  <Seq text>
TAGCCTAGGTCATTGGACCAGTATAGTACGCATC

>  <Property>
PBM binding z-score

>  <Measured result>
1.74

$$$$
>  <Seq text>
CTATGTAGGTTAAGGGGGTCAGTCAGTTTGAAAG

>  <Property>
PBM binding z-score

>  <Measured result>
7.45

$$$$
>  <Seq text>
CTATGTAGGTTTAGGGGGTCATTCAGTTTGAAAG

>  <Property>
PBM binding z-score

>  <Measured result>
3.47

$$$$
>  <Seq text>
TCGAGCAGGTTACGGGGGCATTCAGGGATGAAGA

>  <Property>
PBM binding z-score

>  <Measured result>
2.41

$$$$
>  <Seq text>
CCGACGGGGGCAAGGTTACCATAACGCACAGCCA

>  <Property>
PBM binding z-score

>  <Measured result>
1.63

$$$$
>  <Seq text>
ATCTCTAGGTGAAAGTTCAGTGAATCCCGAGGAT

>  <Property>
PBM binding z-score

>  <Measured result>
5.35

$$$$
>  <Seq text>
ATCGAAAGGTCGTCGAGGTGAGTATACACCGTTT

>  <Property>
PBM binding z-score

>  <Measured result>
0.528

$$$$
>  <Seq text>
CGAACTAGGTCAACGACAGTGAATCTCCGCACGC

>  <Property>
PBM binding z-score

>  <Measured result>
7.66

$$$$
>  <Seq text>
CGAACTAGGTTACCAGGACAGTGAAGAGGTTGGA

>  <Property>
PBM binding z-score

>  <Measured result>
6.94

$$$$
>  <Seq text>
ATATGTAGGTTAGGTTCATTCAGAAAGTAGGGAA

>  <Property>
PBM binding z-score

>  <Measured result>
6.23

$$$$
>  <Seq text>
AGTGAAAGTTCAGGACGAGGTAACGTAAAGCACG

>  <Property>
PBM binding z-score

>  <Measured result>
-0.565

$$$$
>  <Seq text>
CGAACTAGGTCAAAGGACAGTGACAGGCGACGTA

>  <Property>
PBM binding z-score

>  <Measured result>
8.32

$$$$
>  <Seq text>
GATACAGGGTCAAGGCCAGAGTACGCGTATTGAT

>  <Property>
PBM binding z-score

>  <Measured result>
2.82

$$$$
>  <Seq text>
CCGACTTGGGCAAAGGTTACCATACTCAGTACGA

>  <Property>
PBM binding z-score

>  <Measured result>
0.755

$$$$
>  <Seq text>
CCTTACGGGTCCCTGACAGGTTATAGCATTTGGA

>  <Property>
PBM binding z-score

>  <Measured result>
-0.486

$$$$
>  <Seq text>
ATTTGTAGGTTAGGGTCATTCAGAAAGTAGGGAA

>  <Property>
PBM binding z-score

>  <Measured result>
5.45

$$$$
>  <Seq text>
CGTCTAAGGTCAAGGTCAGTGAAAGAGACTCGAA

>  <Property>
PBM binding z-score

>  <Measured result>
4.02

$$$$
>  <Seq text>
GCTGCTAGGTAAGGTTGGTCAGCTAACGGGTACG

>  <Property>
PBM binding z-score

>  <Measured result>
0.515

$$$$
>  <Seq text>
GCTGCTAGGTCAGGTTGGTCTGCTAACGGGTACG

>  <Property>
PBM binding z-score

>  <Measured result>
3.08

$$$$
>  <Seq text>
CGAACTAGGTCACCAGGCCAGTGAAGAGGTTGGA

>  <Property>
PBM binding z-score

>  <Measured result>
8.23

$$$$
>  <Seq text>
CGAACTTGGTCAAAGGACAGTGAAAGGCGACGTA

>  <Property>
PBM binding z-score

>  <Measured result>
0.58

$$$$
>  <Seq text>
ATATTTAGGTTAGGGTCATTCAGAAAGTAGGGAA

>  <Property>
PBM binding z-score

>  <Measured result>
5.81

$$$$
>  <Seq text>
CCTACTGGGCCAAGCTCATTGATCAGTCAAAGCA

>  <Property>
PBM binding z-score

>  <Measured result>
4.44

$$$$
>  <Seq text>
CCGAGTAGGTTACGAGGGGGGATTCAGTGCGAAT

>  <Property>
PBM binding z-score

>  <Measured result>
5.06

$$$$
>  <Seq text>
CGAACTAGGACACCAGGACAGTGAAGAGGTTGGA

>  <Property>
PBM binding z-score

>  <Measured result>
6.02

$$$$
